Parameter: EC50. Scope: all listed entries.
measurementTarget: E. coli K12 PBP3 (Escherichia coli)
measurementProtocol: biochemical

Please review the entries below; each comes with its answer.
[[record]]
compound = "NCCN1CCN(C(=O)N[C@H](C(=O)N[C@H]2Cc3cccc(C(=O)O)c3OB2O)c2ccc(O)c(F)c2F)C(=O)C1=O (single isomer, unassigned)"
measurementtarget = "E. coli K12 PBP3 (Escherichia coli)"
experimentalresult = "30 to 500 µM"

[[record]]
compound = "CCN1CCN(C(=O)NC(C(=O)N[C@H]2Cc3cccc(C(=O)O)c3OB2O)c2ccc(O)cc2O)C(=O)C1=O (stereo partly drawn)"
measurementtarget = "E. coli K12 PBP3 (Escherichia coli)"
experimentalresult = "< 30 µM"


Report EC50 for CCN1CCN(C(=O)NC(C(=O)N[C@H]2Cc3cccc(C(=O)O)c3OB2O)c2c(F)cc(NC(=O)NC)cc2F)C(=O)C1=O (stereo partly drawn) please.
< 30 µM

----------
measurementTarget: E. coli K12 PBP4 (Escherichia coli)
Construct: made in house
measurementProtocol: Bocillin-FL fluorescence polarization competition binding assay, E. coli PBP4
measurementContext: E. coli PBP4; assay validation with beta-lactams; read-out: EC50 (concentration of beta-lactam required to reduce the amount of PBP bound-Bocillin-FL by 50%)
readoutLabel: EC50

Any idea what EC50 was measured for C[C@@H](O)[C@H]1C(=O)N2C(C(=O)O)=C(S[C@@H]3CN[C@H](C(=O)N(C)C)C3)[C@H](C)[C@H]12 [meropenem, reference compound] ?
< 2000 nM

----------
MIC listing for selected compounds.
Tested on: N. gonorrhoeae WHO Q
measurementProtocol: Liquid broth MIC in Fastidious broth
Type: cell-based
measurementContext: Neisseria gonorrhoeae, read-out: Minimum Inhibitory Concentration, N. gonorrhoeae WHO Q

N. gonorrhoeae WHO Q / MIC / CCN1CCN(C(=O)NC(C(=O)N[C@H]2Cc3cccc(C(=O)O)c3OB2O)c2cc(F)c(O)cc2F)C(=O)C1=O (stereo partly drawn) [Example 104] : value?
4 to 8 µg/mL

For the record O=C(O)c1cccc2c1OB(O)[C@@H](NC(=O)[C@H](NC(=O)N1CCN(CCF)C(=O)C1=O)c1c(F)cc(O)cc1F)C2 (single isomer, unassigned) [Example 126] , what value of MIC is listed for N. gonorrhoeae WHO Q?
4 to 8 µg/mL

Hi! What's the reported MIC for CCN1CCN(C(=O)NC(C(=O)N[C@H]2Cc3cccc(C(=O)O)c3OB2O)c2cccc(O)c2)C(=O)C1=O (stereo partly drawn) [Example 68] on N. gonorrhoeae WHO Q?
> 64 µg/mL

Please state recorded MIC (tested on N. gonorrhoeae WHO Q) of CCN1CCN(C(=O)NC(C(=O)N[C@H]2Cc3cccc(C(=O)O)c3OB2O)c2cc(F)c(O)c(Cl)c2)C(=O)C1=O (stereo partly drawn) [Example 164]
16 to 32 µg/mL

N. gonorrhoeae WHO Q / MIC / CCN1CCN(C(=O)N[C@H](C(=O)N[C@H]2Cc3cccc(C(=O)O)c3OB2O)c2ccc(C(=O)O)c(F)c2)C(=O)C1=O (single isomer, unassigned) [Example 147] : value?
0.25 to 0.5 µg/mL

Given the entry CCN1CCN(C(=O)N[C@H](C(=O)N[C@H]2Cc3ccc(F)c(C(=O)O)c3OB2O)c2c(F)cc(O)c(O)c2Cl)C(=O)C1=O (single isomer, unassigned) [Example 125] , what MIC was observed with N. gonorrhoeae WHO Q?
> 64 µg/mL

----------
measurementProtocol: Bocillin-FL fluorescence polarization competition binding assay, A. baumannii PBP3
measurementContext: fluorescence polarization competition binding assay using Bocillin-FL; column 3; read-out: 4. baumannii PBP1a Potency
readoutLabel: EC50

Below are worked cases with known answers.
[[record]]
compound = "CCN1CCN(C(=O)N[C@H](C(=O)N[C@H]2Cc3ccc(F)c(C(=O)O)c3OB2O)c2c(F)cc(O)c(O)c2Cl)C(=O)C1=O (single isomer, unassigned)"
readoutlabel = "EC50"
experimentalresult = "> 100 µM"

[[record]]
compound = "CCN1CCN(C(=O)NC(C(=O)N[C@H]2Cc3ccc(F)c(C(=O)O)c3OB2O)c2c(F)cc(O)c(O)c2F)C(=O)C1=O (some centres unmarked)"
readoutlabel = "EC50"
experimentalresult = "10 to 30 µM"

[[record]]
compound = "NCCN1CCN(C(=O)N[C@@H](C(=O)N[C@H]2Cc3ccc(F)c(C(=O)O)c3OB2O)c2c(F)cc(O)c(O)c2Cl)C(=O)C1=O (single isomer, unassigned)"
readoutlabel = "EC50"
experimentalresult = "30 to 100 µM"


Returns the measured EC50 for the input compound. Input: C[C@H]1CN(CCN)C(=O)C(=O)N1C(=O)N[C@@H](C(=O)N[C@H]1Cc2cccc(C(=O)O)c2OB1O)c1ncc(O)cc1F
< 10 µM

Using the record for NCCCN1CCN(C(=O)N[C@@H](C(=O)N[C@H]2Cc3ccc(F)c(C(=O)O)c3OB2O)c2ncc(O)cc2F)C(=O)C1=O , report its EC50.
30 to 100 µM

Dear colleague, I am looking for the recorded EC50 of the following compound: NCCCN1CCN(C(=O)NC(C(=O)N[C@H]2Cc3cccc(C(=O)O)c3OB2O)c2ccc(C(=O)O)cc2)C(=O)C1=O (some centres unmarked)
30 to 100 µM

----------
measurementTarget: E. coli K12 PBP3 (Escherichia coli)
measurementProtocol: biochemical
Overview of recorded EC50 for various molecules

Please review the following examples before continuing.
[[record]]
molecule = "CCN1CCN(C(=O)NC(C(=O)N[C@H]2Cc3cccc(C(=O)O)c3OB2O)c2ncc(C(=O)O)cc2F)C(=O)C1=O (stereo partly drawn)"
readoutlabel = "EC50"
experimentalresult = "< 30 µM"

[[record]]
molecule = "CCN1CCN(C(=O)NC(C(=O)N[C@H]2Cc3cccc(C(=O)O)c3OB2O)c2c(F)c(F)c(O)c(F)c2F)C(=O)C1=O (stereo partly drawn)"
readoutlabel = "EC50"
experimentalresult = "< 30 µM"

[[record]]
molecule = "CCN1CCN(C(=O)N[C@H](C(=O)N[C@H]2Cc3ccc(F)c(C(=O)O)c3OB2O)c2c(F)cc(O)c(O)c2Cl)C(=O)C1=O (single isomer, unassigned)"
readoutlabel = "EC50"
experimentalresult = "> 500 µM"

[[record]]
molecule = "NCCN1CCN(C(=O)NC(C(=O)N[C@H]2Cc3cccc(C(=O)O)c3OB2O)c2ccc(C(=O)O)cc2O)C(=O)C1=O (stereo partly drawn)"
readoutlabel = "EC50"
experimentalresult = "30 to 500 µM"

[[record]]
molecule = "CCN1CCN(C(=O)NC(C(=O)N[C@H]2Cc3cccc(C(=O)O)c3OB2O)c2ccc(C(=O)O)c(F)c2)C(=O)C1=O (stereo partly drawn)"
readoutlabel = "EC50"
experimentalresult = "< 30 µM"


Please look at the following molecule next.
Fill blank: measured EC50 of the molecule CCN1CCN(C(=O)NC(C(=O)N[C@H]2Cc3cccc(C(=O)O)c3OB2O)c2ccc(C(=O)O)cc2F)C(=O)C1=O (stereo partly drawn) is ____.
< 30 µM

----------
Tested on: N. gonorrhoeae WHO G
measurementProtocol: Liquid broth MIC in Fastidious broth
Type: cell-based
measurementContext: Neisseria gonorrhoeae; N. gonorrhoeae strain WHO G; Fastidious broth; read-out: Minimum Inhibitory Concentration, N. gonorrhoeae WHO G
Experimental: Example V: In Vitro Antibacterial Assays for N. gonorrhoeae Strains Additional antibacterial testing of the series was performed in 8 reference strains of N. gonorrhoeae (ATCC 49226, FA1090, WHO G, WHO L, WHO K, H041, WHO Z, and WHO Q). ATCC 49226, FA1090, WHO G, and WHO L produce wild type or wild-type like PBP2. […] After the dilution plates were set up, direct suspensions were then diluted in a cuvette containing sterile saline and the optical density was measured at 600 nm. […]
Overview of recorded MIC for various compounds

[[record]]
compound = "CCN1CCN(C(=O)NC(C(=O)N[C@H]2Cc3cccc(C(=O)O)c3OB2O)c2c(F)cc(C(=O)O)cc2F)C(=O)C1=O (stereo partly drawn) [Example 157]"
experimentalresult = "1 to 2 mg/L"

[[record]]
compound = "CCN1CCN(C(=O)NC(C(=O)N[C@H]2Cc3cccc(C(=O)O)c3OB2O)c2ccc(O)cc2OC)C(=O)C1=O (stereo partly drawn) [Example 70]"
experimentalresult = "16 to 32 mg/L"

[[record]]
compound = "CCN1CCN(C(=O)NC(C(=O)N[C@H]2Cc3cccc(C(=O)O)c3OB2O)c2cc(O)cc(O)c2)C(=O)C1=O (mixture of isomers) [Example 79]"
experimentalresult = "1 to 2 mg/L"

[[record]]
compound = "CCN1CCN(C(=O)NC(C(=O)N[C@H]2Cc3cccc(C(=O)O)c3OB2O)c2cc(F)c(O)c(F)c2F)C(=O)C1=O (stereo partly drawn) [Example 172]"
experimentalresult = "0.25 to 0.5 mg/L"

[[record]]
compound = "N=C(N)NCCN1CCN(C(=O)NC(C(=O)N[C@H]2Cc3ccc(F)c(C(=O)O)c3OB2O)c2ncc(O)cc2F)C(=O)C1=O (stereo partly drawn) [Example 51]"
experimentalresult = "4 to 8 mg/L"


Let us examine a further case.
Value lookup for MIC; key = CCN1CCN(C(=O)NC(C(=O)N[C@H]2Cc3ccc(F)c(C(=O)O)c3OB2O)c2c(F)cc(O)c(O)c2F)C(=O)C1=O (stereo partly drawn) [Example 36]
16 to 32 mg/L
